# Test system: OVCAR-4
Endpoint label: GI50 (nM)

> print(dat)
                                   compound  numeric.value
1  Fc1ccc2[nH]c(-c3cc(-c4ccc5c(c4)OCO5)n[nH]3)nc2c1           1370
2  COc1cc(-c2cc(-c3nc4cc(Cl)ccc4[nH]3)[nH]n2)cc(OC)c1OC           1380
3  COc1ccc2[nH]c(-c3cc(-c4cc(OC)c(OC)c(OC)c4)n[nH]3)nc2c1           1240
4  COc1cc(-c2cc(-c3nc4cc(Cl)c(Cl)cc4[nH]3)[nH]n2)cc(OC)c1OC [10f]           2210
5  COc1cc(-c2cc(-c3nc4ccccc4[nH]3)[nH]n2)cc(OC)c1OC           1260
6  c1ccc2[nH]c(-c3cc(-c4ccc5c(c4)OCO5)n[nH]3)nc2c1           2160
